System: Mycobacterium tuberculosis
Assay: Binding affinity to wild type Mycobacterium tuberculosis Pks13-TE N1640 expressed in Escherichia coli BL21(DE3) pLysS assessed as change in melting temperature at 1:10 compound to protein ratio by nanoDSF thermal stability analysis
quantity.kind: ΔTm (°C)

- structure: "O=c1oc2cc(O)ccc2c2oc3ccc(O)c(CN4CCC(F)CC4)c3c12"
  unit.info: "°C"
  result: 7.6
- structure: "O=c1oc2cc(O)ccc2c2oc3ccc4c(c3c12)CN(C1CCCC1)CO4"
  unit.info: "°C"
  result: 8.4
- structure: "O=c1oc2cc(O)ccc2c2oc3ccc4c(c3c12)CN(CC1CC1)CO4"
  unit.info: "°C"
  result: 5.3
- structure: "O=c1oc2cc(O)ccc2c2oc3ccc(O)c(CN4CCCCC4)c3c12"
  unit.info: "°C"
  result: 7.2
